- study-target: human recombinant LPA2 (Homo sapiens, UniProt Q9HBW0)
- Construct: expressed in transfected cells; host or cells: CHO (CHO-hLPA2 cell line)
- Sequence (Q9HBW0 whole entry): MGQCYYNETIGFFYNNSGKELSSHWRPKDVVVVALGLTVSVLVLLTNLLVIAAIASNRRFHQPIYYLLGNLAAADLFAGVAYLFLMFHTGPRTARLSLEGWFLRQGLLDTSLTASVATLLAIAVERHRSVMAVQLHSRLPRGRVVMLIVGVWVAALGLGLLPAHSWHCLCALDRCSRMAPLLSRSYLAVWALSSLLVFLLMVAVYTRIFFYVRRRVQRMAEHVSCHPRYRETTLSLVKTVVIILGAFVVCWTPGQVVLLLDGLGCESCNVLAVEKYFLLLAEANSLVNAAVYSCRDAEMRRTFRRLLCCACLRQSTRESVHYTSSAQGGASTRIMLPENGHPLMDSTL
- method-description: FLIPR calcium mobilization assay, LPA2 antagonism in CHO-hLPA2 cells
- Format: cell-based
- test-settings: same in vitro assay as Table 2; read-out: IC50 on LPA2 receptor
endpoint-name: IC50

Measured IC50, COC(=O)Nc1nc(C)c(S(=O)(=O)N2CCN(C[C@H](C)Nc3ncnc4c(-c5cccnc5)cn(C)c34)CC2)s1 [comparative Example A, reference compound] : > 2 µM

###

Hi there, I'd appreciate the recorded pIC50 for every entry that follows.
- study-target: human recombinant LPA2 (Homo sapiens, UniProt Q9HBW0)
- Construct: expressed in transfected cells; host or cells: CHO (CHO-hLPA2 cell line)
- method-description: FLIPR calcium mobilization assay, LPA2 antagonism in CHO-hLPA2 cells
- Type: cell-based
- test-settings: human recombinant LPA2 in CHO cells, LPA EC80 stimulation, 30 min pre-incubation; read-out: LPA2 IC50
- Excerpt: The effectiveness of compounds of the present invention as LPA2 antagonist can be determined at the human recombinant LPA2 expressed in CHO cells, using a FLIPR assay in 384 well format. […] The raw data (peak height expressed as relative fluorescence units) are normalized and transformed into “percent of inhibition”. […]
pIC50: −log10 of the molar value.

1. Cc1csc2c(N[C@@H](C)CN3CCN(S(=O)(=O)c4cc(Br)c(Cl)s4)CC3)ncnc12	> 6.00
2. Cc1csc2c(N[C@@H](C)CN3CCN(S(=O)(=O)c4ccc(NC(=O)c5ccncc5)cc4)CC3)ncnc12	> 6.00
3. COC(=O)Nc1nc(C)c(S(=O)(=O)N2CCN(C[C@H](C)Nc3nc(C4CC4)nc4c(C(F)(F)F)csc34)CC2)s1	> 8.00

Please turn your attention to the following entry.
Cc1csc2c(N[C@@H](C)CN3CCN(S(=O)(=O)c4ccc(-c5ccno5)s4)CC3)ncnc12 yielded pIC50 of > 6.00
